- Test system: BT-549 breast
- MEASUREMENT_DESCRIPTION: NCI tumour cell line growth inhibition, 48 h
Reported values of GI50 for individual entries

MOLECULE	MEASURED_TARGET	GI50
CN(C)CCOC(c1ccccc1)c1ccccc1	BT-549 breast	33.7 µM
CCN(CC)CCCC(C)N=c1cc(Nc2cc(=NC(C)CCCN(CC)CC)c3cc(OC)ccc3o2)oc2ccc(OC)cc12 (stereo not given)	BT-549 breast	3.16 µM
O=C(/C(=C/c1ccc([N+](=O)[O-])cc1)SCc1ccc(F)cc1)c1ccc(Cl)cc1	BT-549 breast	3.38 µM
COc1ccc(CNc2nc3cc(N)cc(N)c3nc2-c2ccccc2)cc1	BT-549 breast	6.52 µM
CC1=C([Te]c2ccc(O)cc2)C(=O)c2ccccc2C1=O	BT-549 breast	0.448 µM
